inhibition overview
Target: Low molecular weight phosphotyrosine protein phosphatase (Homo sapiens) (UniProt P24666)
Sequence (P24666 whole entry, looked up): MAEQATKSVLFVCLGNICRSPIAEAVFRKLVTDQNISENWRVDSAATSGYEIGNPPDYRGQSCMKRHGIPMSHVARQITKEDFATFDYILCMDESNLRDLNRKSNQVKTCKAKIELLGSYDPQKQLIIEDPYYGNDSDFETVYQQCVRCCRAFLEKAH
Assay: inhibition of human LMPTP-A enzyme – biochemical, fluorescence intensity, uHTS, primary screen (AID 651560);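 further: plate controls were DMSO wells with enzyme plus substrate for no effect and substrate without enzyme for full effect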
Details: recombinant LMPTP-A, OMFP fluorogenic substrate, at 20 µM, stronger effect = higher value
Hit rate of the full screen: of about 360,000 compounds, about 820 (0.23%) were called active. This is one part of a sample in which actives are shown more often than they occur.
Numeric answer only, unit % assumed.

Below: 5 compounds and their reported inhibition.
CCCc1nc(-c2cc3cc(C)ccc3[nH]c2=O)no1
-2.23
C[C@H](CO)N1C[C@H](C)[C@H](CN(C)C(=O)Nc2ccc3c(c2)OCO3)Oc2ncc(Br)cc2C1=O
-2.87
O=C1NC(O)CCN1C1CC(O)C(CO)O1 (configuration not stated)
-0.47
c1ccc(-c2cc(N3CCCCC3)c3ccccc3n2)cc1
67.2
COCCCNC(=O)C1CC(=O)N(CCc2ccccc2)C1 (configuration not stated)
-0.151

Task: Notebook entry, Low molecular weight phosphotyrosine protein phosphatase (Homo sapiens) (UniProt P24666) assay: inhibition of O=C1c2ccccc2C(Nc2ccc3c(c2)OCCO3)N1Cc1ccco1 (configuration not stated) = ?
Result: 0.866

Task: Another compound to look at: Cn1c(=O)c2c(ncn2CC(=O)N/N=C/c2cn[nH]c2-c2ccc(F)cc2)n(C)c1=O
Result: -0.239

Task: Follow-up entry: COc1ccc(Br)cc1/C=N/Nc1ccc(S(=O)(=O)Nc2ccccc2C(=O)O)cc1[N+](=O)[O-]
Result: 71.1

Task: Further, for Cc1[nH]c(N)nc(=S)c1CCCNc1ccccc1 ?
Result: 4.94

Task: Input CC(OC(=O)c1c(F)cccc1F)C(=O)NCCC1=CCCCC1 (configuration not stated)
Result: 0.59

* * *

Target: Low molecular weight phosphotyrosine protein phosphatase (Homo sapiens) (UniProt P24666)
Assay: inhibition of human LMPTP-A enzyme – biochemical, fluorescence intensity, uHTS, primary screen (AID 651560)
Settings: recombinant LMPTP-A, OMFP fluorogenic substrate, at 20 µM
Screen size: about 360,000 compounds; about 820 (0.23%) were called active.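 The calls were made as follows: active = compounds that cut the enzyme signal by at least half of the control window in the single-dose screen; inactive = the rest.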 The sample holds actives, similar compounds and a random draw of the others, so the mix is not that of the screen.
Return exactly one item of Y = active, N = inactive

Below, 2 molecules whose answers are already recorded.
O=C(COc1ccc(Cl)cc1Cl)NCCCNC(=O)c1cnccn1
N
Cn1c(CN2CCOCC2)nc2cc(NC(=O)c3ccc(Cl)cc3)ccc21
N

Task: Outcome? O=c1c2cc(-c3ccccc3)sc2nc2n1N=C(c1cccs1)CS2
Result: Y

* * *

Attribute: inhibition
Target: Low molecular weight phosphotyrosine protein phosphatase (Homo sapiens)
Assay: inhibition of human LMPTP-A enzyme – biochemical, fluorescence intensity, uHTS, primary screen (AID 651560)
Settings: recombinant LMPTP-A, OMFP fluorogenic substrate, at 20 µM, stronger effect = higher value
The whole screen tested about 360,000 compounds, of which about 820 (0.23%) were called active. The list comes from a sample in which actives are over-represented; it also holds close analogues and randomly drawn compounds.
Your answer should be a plain number; it is taken to be in %.

CS(=O)(=O)N1CCCCC1c1cc(C(=O)NCc2ccccc2)no1 (stereo unspecified)
-1.43
Cc1cccc(OCC(O)CN2CCN(CCN3C(=O)c4cccc5cccc(c45)C3=O)CC2)c1C (stereo unspecified)
8.73
O=C(CCCOc1ccccc1)NNC(=O)c1ccc(Cl)cc1
-0.0475

Task: Any idea what its inhibition is? The compound is CCN(CCn1cccn1)Cc1cn[nH]c1-c1ccc(OC)cc1F
Result: -1.15

Task: Now the compound O=C(NNC(=O)c1ccc2ccccc2c1)c1ccc(Cl)cc1
Result: 49.6

Task: Okay, and CN(CC(=O)Nc1ccc(Cl)cc1)C(=O)CNC(=O)c1ccc2ccccc2c1 ?
Result: 0.862

Task: Would you kindly repeat that for Brc1cnc2ccccc2c1N1CCCCC1 ?
Result: 4.39

Task: Next record, please: CCS(=O)(=O)N1Cc2ccccc2CC1C(=O)Nc1ccc(OC)cc1OC (stereo unspecified)
Result: -0.419

* * *

Molecular target: Low molecular weight phosphotyrosine protein phosphatase (Homo sapiens)
Test: inhibition of human LMPTP-A enzyme – biochemical, fluorescence intensity, uHTS, primary screen (AID 651560);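 further: plate controls were DMSO wells with enzyme plus substrate for no effect and substrate without enzyme for full effect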
Details: recombinant LMPTP-A, OMFP fluorogenic substrate, at 20 µM, stronger effect = higher value
Out of some 360,000 compounds screened, about 820 (0.23%) were called active. What follows is part of a selection rich in actives, with near analogues and random picks from the rest.
Below, each entry is listed with its recorded inhibition.
Your answer is read as %, so omit the unit and give the number.

A selection of reference data follows.
COc1cnc(SCc2ccc(Cl)c(Cl)c2)nc1Cl
3.06
CC1CCN(C(=S)c2cccc(O)c2)CC1
0.643
CCC1CCCCN1C(=O)CSc1nc(C)cc(C)n1 (stereo unspecified)
-0.356
Cc1cc2c(cc1C)N(C(=O)CN1C(=O)c3ccccc3C1=O)C(C)(C)c1ssc(=S)c1-2
2.43
O=C(CCc1nc2sc3c(c2c(=O)[nH]1)CCCC3)NCC(=O)Nc1ccccc1Br
9.36

Task: Lab request: please report inhibition under test system Low molecular weight phosphotyrosine protein phosphatase (Homo sapiens) for CCN1C(=O)C(=O)N(CC(=O)Nc2cc(C)ccc2C)C1=O
Result: -0.207

* * *

Target: Low molecular weight phosphotyrosine protein phosphatase (Homo sapiens)
Experiment: inhibition of human LMPTP-A enzyme – biochemical, fluorescence intensity, uHTS, primary screen (AID 651560);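 further: plate controls were DMSO wells with enzyme plus substrate for no effect and substrate without enzyme for full effect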
Settings: recombinant LMPTP-A, OMFP fluorogenic substrate, at 20 µM
Hit rate of the full screen: of about 360,000 compounds, about 820 (0.23%) were called active.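 How the source made its calls: active means compounds that cut the enzyme signal by at least half of the control window in the single-dose screen; inactive means the rest.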 The sample as a whole holds a higher share of actives than the screen did.
Your reply should match one of these outcome classes. true (active), false (inactive)

Below, 6 molecules whose answers are already recorded.
O=C(COc1ccc([N+](=O)[O-])cc1)Nc1cccc(C(=O)Nc2ccccc2C(=O)O)c1
false
O=C(CO/N=C/c1ccccc1OC(F)F)NC1CCCC1
false
CSCCC(NC(=O)c1ccco1)C(=O)NCCc1ccc(F)cc1 (configuration not stated)
false
C=CCn1c(Oc2ccc(C(=O)OC)cc2)nc2c1c(=O)n(C)c(=O)n2C
false
O=C(NCc1cccnc1)c1cc(C2CCCN(C(=O)CCCc3ccccc3)C2)on1 (configuration not stated)
false
N#Cc1cc([N+](=O)[O-])ccc1Oc1cccc(/C=N/NC(=O)c2ccc(Cl)cc2)c1
false

Task: Could you check what this test reported for Cc1ccc(Cc2c(-c3ccc(Cl)cc3)nc3c4ccccc4ccn23)cc1 ?
Result: false

Task: // same read-out, input: CCCc1c(C)nc2scc(-c3ccc(Cl)cc3)n2c1=O
Result: false

Task: Quick one: Cc1ccc(C(=O)O)cc1-c1ccc(/C=C2\SC(=O)N(CC(=O)Nc3ccc4c(c3)OCO4)C2=O)o1
Result: true

Task: What do we get for O=C(CSc1ccc([N+](=O)[O-])cn1)Nc1ccc(N2CCOCC2)cc1 ?
Result: false

Task: Lookup CCOC(=O)C1(CC2CCCCO2)CCN(Cc2nc(-c3cccs3)oc2C)CC1 (configuration not stated)
Result: false

Task: Here is the next molecule: C[C@@H]1CN([C@@H](C)CO)C(=O)CCCn2nncc2CO[C@@H]1CN(C)S(=O)(=O)c1ccc(-c2ccccc2)cc1
Result: false

Task: Then what about the molecule O=C(COc1ccc([N+](=O)[O-])cc1)Nc1ccc(N2CCCC2)cc1 ?
Result: true

Task: Query CC1(C)C2CC=C(/C=N/NC(=O)c3ccc(Cl)cc3)C1C2 (configuration not stated) next
Result: false

Task: Let us now turn to COc1ccccc1OCCNC(=O)C(CCSC)NC(=O)COc1ccccc1 (configuration not stated)
Result: false

Task: // next record CCN(CC)Cc1nc2sc(C)c(C)c2c(=O)[nH]1
Result: false

Task: Next molecule up: Cc1sc2ncnc(SCC(=O)Nc3ccc(CN4CCCC4)cc3)c2c1C
Result: false

Task: Again, but for O=c1ccc2cc(S(=O)(=O)N3CCN(c4ccccc4)CC3)ccc2o1
Result: false

Task: Ok, now O=C1COc2c1ccc(O)c2O
Result: false

Task: Check N#Cc1ccc(OCC(=O)NC(=O)NC2CCS(=O)(=O)C2)cc1 (configuration not stated) too.
Result: false

Task: Next molecule up: Cn1c(SCC(=O)Nc2ccc(Cl)cc2)nc(O)cc1=O
Result: false

Task: What do you have for Cc1cccc(C)c1NC1=NC(=S)N(c2ccc(N(C)C)cc2)C1(C)C ?
Result: false

Task: And Fc1ccccc1OCCSc1nc2ccccc2o1 ?
Result: false

* * *

Target: Low molecular weight phosphotyrosine protein phosphatase (Homo sapiens) (UniProt P24666)
Experiment: inhibition of human LMPTP-A enzyme – biochemical, fluorescence intensity, uHTS, primary screen (AID 651560);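 further: plate controls were DMSO wells with enzyme plus substrate for no effect and substrate without enzyme for full effect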
Details: recombinant LMPTP-A, OMFP fluorogenic substrate, at 20 µM, stronger effect = higher value
About 820 (0.23%) of roughly 360,000 compounds were called active. The sample holds actives, similar compounds and a random draw of the others, so the mix is not that of the screen.
value_kind: inhibition (%)
Just the number please, in %, no unit attached.

O=c1c(Cl)c(NCc2ccc(F)cc2Cl)cnn1C12CC3CC(CC(C3)C1)C2
1.08
COc1ccccc1C(CNC(=O)c1cccc(NS(=O)(=O)c2ccc(Br)cc2)c1)N(C)C (configuration not stated)
-1.5
CNc1cnc(-c2cc(OC)c(OC)c(OC)c2)cn1
0.718
COc1ccc2c(c1)c(=Cc1ccc(N(C)C)cc1)c1cc(-c3ccccc3)[n+](C)n12
96.2
CCOC(=O)C1CCN(C(=O)c2ccc3c(=O)n4nc(Nc5ccccc5CC)sc4nc3c2)CC1
1.95

Task: Param readout= inhibition; system= Low molecular weight phosphotyrosine protein phosphatase (Homo sapiens) (UniProt P24666); entry= O=S(=O)(c1ccc(F)cc1)N1CCN(C(=S)NCc2ccco2)CC1 ; returns value.
Result: 0.0562

Task: Same question, CCOc1ccccc1NC(=O)C1CCCN(C(=O)Nc2ccccc2)C1 (configuration not stated) this time
Result: -1.09

Task: Then COC(=O)c1c(NC(=O)CN(c2ccc(C)c(C)c2)S(C)(=O)=O)sc2c1CCCC2 ?
Result: 1.37

Task: Then what about the compound Cc1ccc(S(=O)(=O)N2[C@@H](c3ccc(Br)cc3)C(C(=O)O)=C[C@H]2CC2CCCC2)cc1 ?
Result: 0.284

Task: Could you do the same for Nc1nc(C23CC4CC(CC(C4)C2)C3)cs1 , please?
Result: -0.25

Task: Next: Cc1ccc(N2C(=O)C3C4C=CC(CC4)C3C2=O)cc1Br (configuration not stated)
Result: -1.41

Task: For C[C@H](NC(=O)NCCc1ccccc1)C(=O)O then?
Result: 0.573
